- System: U2OS;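 also: FLICK assay: SYTOX Green fluorescence of dead cells tracked over time after drugging in 96-well plates, with total cell counts taken from Triton X-100 lysed wells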
- experimentalProtocol: maximum observed lethal fraction; higher = more cell death
- runConditions: 0.0316 µM
propertyName: maximum observed lethal fraction

Example entries begin here.
{"columns": ["compound", "result"],
 "data": [
  ["CCN1CCN(Cc2ccc(Nc3ncc(F)c(-c4cc(F)c5nc(C)n(C(C)C)c5c4)n3)nc2)CC1", 0.0675],
  ["C=CC(=O)Nc1ccc(C(=O)Nc2[nH]nc3c2CN(C(=O)N[C@H](CN(C)C)c2ccccc2)C3(C)C)cc1", 0.0634],
  ["CN1CC[C@H](c2c(O)cc(O)c3c(=O)cc(-c4ccccc4Cl)oc23)[C@H](O)C1", 0.0639],
  ["NC1(C(=O)N[C@@H](CCO)c2ccc(Cl)cc2)CCN(c2nc[nH]c3nccc2-3)CC1", 0.0687],
  ["COc1cc([C@@H]2c3cc4c(cc3[C@@H](O[C@@H]3O[C@@H]5CO[C@@H](c6cccs6)O[C@H]5[C@H](O)[C@H]3O)[C@H]3COC(=O)[C@H]23)OCO4)cc(OC)c1O [Teniposide]", 0.0732]
]}

Quick one: maximum observed lethal fraction of `CC(=O)c1c(C)c2cnc(Nc3ccc(N4CCNCC4)cn3)nc2n(C2CCCC2)c1=O` ?
0.068

Quick one: maximum observed lethal fraction of `Cc1cc(Nc2ccc(NC(=O)c3ccc(Nc4ccnc5ccccc45)cc3)cc2)nc(N)n1` ?
0.0565

Ref: the supplement of paper PMC12406974
